Overview of reported IC50 across a group of compounds:
Target: human mGluR2 (Homo sapiens (Human))
Sequence (Q14416 19-872): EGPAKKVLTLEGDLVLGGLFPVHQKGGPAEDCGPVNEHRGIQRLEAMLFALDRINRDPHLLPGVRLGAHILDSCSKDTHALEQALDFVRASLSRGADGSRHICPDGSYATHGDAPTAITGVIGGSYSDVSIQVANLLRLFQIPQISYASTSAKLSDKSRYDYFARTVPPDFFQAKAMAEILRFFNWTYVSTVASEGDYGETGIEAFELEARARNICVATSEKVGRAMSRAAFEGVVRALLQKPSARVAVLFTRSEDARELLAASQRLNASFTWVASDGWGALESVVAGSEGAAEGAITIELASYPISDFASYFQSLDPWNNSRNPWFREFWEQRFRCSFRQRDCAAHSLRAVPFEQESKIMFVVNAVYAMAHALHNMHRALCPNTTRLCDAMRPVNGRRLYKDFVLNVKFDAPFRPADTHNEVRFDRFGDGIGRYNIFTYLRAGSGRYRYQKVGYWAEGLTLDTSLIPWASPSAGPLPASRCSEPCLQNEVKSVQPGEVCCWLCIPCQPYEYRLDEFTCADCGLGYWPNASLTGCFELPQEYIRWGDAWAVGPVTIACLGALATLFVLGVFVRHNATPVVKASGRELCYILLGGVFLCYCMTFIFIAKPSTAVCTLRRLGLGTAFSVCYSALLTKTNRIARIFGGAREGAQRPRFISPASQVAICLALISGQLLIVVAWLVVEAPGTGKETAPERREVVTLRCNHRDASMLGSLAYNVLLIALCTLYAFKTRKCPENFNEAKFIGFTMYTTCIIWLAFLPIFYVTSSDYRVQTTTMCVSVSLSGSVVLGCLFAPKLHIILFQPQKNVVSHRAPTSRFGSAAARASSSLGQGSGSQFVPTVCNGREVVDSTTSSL
Experiment: [35S]GTPγS binding assay (Affinity to mGluR2)
Assay type: biochemical
Conditions: cell membrane fraction of HEK293 cells stably expressing human mGluR2; glutamic acid 10 μM; inhibition of specific [35S]GTPγS binding
Experimental: (Preparation of Cell Membrane Fraction of HEK293 Cells Stably Expressing Human Metabotropic Glutamate Receptor 2 (mGluR2)) HEK293 cells stably expressing human mGluR2 and human glutamate transporter SLC1A3 were cultured in a Dulbecco's modified Eagle's medium with 10% fetal bovine serum (50 units/mL of penicillin, 50 μg/mL of streptomycin, 60 μg/mL of geneticin, 400 μg/mL of hygromycin B and 2 mM of glutamine) at 37° C. under 5% CO2. […]
// note: answer is a bare numeric in nM

// solved cases for IC50 follow
[[record]]
compound = "Cc1cc(-c2nc(-c3ccc(OC4CC4)c(Cl)c3)n3c2CCO[C@H](C)C3)ccn1 [Example 159]"
result_unit = "nM"
observed_value = 5

[[record]]
compound = "Cc1cc(-c2nc(-c3ccc(OC(F)(F)F)c(C#N)c3)n3c2CCO[C@H](C)C3)ccn1 [Example 169]"
result_unit = "nM"
observed_value = 4.6

[[record]]
compound = "Cc1cc(-c2nc(-c3ccc(OC(F)(F)F)c(C)c3)n3c2CCO[C@H](CF)C3)ccn1 [Example 162]"
result_unit = "nM"
observed_value = 5

[[record]]
compound = "Cc1cc(-c2nc(-c3ccc(OC(F)(F)F)c(CF)c3)n3c2CCOCC3)cc(C)n1 [Example 211]"
result_unit = "nM"
observed_value = 27.1


What value of IC50 has been recorded for this entry: Cc1cc(-c2nc(-c3ccc(F)c(C(F)(F)F)c3)n3c2CCO[C@H](CF)C3)cc(C)n1 [Example 173]
19.2
